Target: Recombinant Human PSMA/FOLH1 Protein (Homo sapiens (Human))
Test: Inhibition assay (Amplex Red glutamic acid/glutamate oxidase, NAAG substrate)
Format: biochemical
Conditions: Target PSMA; average of N replicates; PSMA 5 nM, NAAG 40 μM
assay_endpoint: log10 IC50 (log10 of the value in nM)
Base-10 log of IC50, unit nM.

Here is how some molecules turned out for log10 IC50.
CC(=O)NCCOCCOCCOCCC(=O)NC[C@H]1CC[C@H](C(=O)N[C@@H](Cc2ccc3ccccc3c2)C(=O)NCCCC[C@H](NC(=O)N[C@@H](Cc2ccco2)C(=O)O)C(=O)O)CC1 :: 4.22
CC(=O)NCCOCCOCCOCCC(=O)NC[C@H]1CC[C@H](C(=O)N[C@@H](CCCOc2cc(C#N)cc(C#N)c2)C(=O)NCCCC[C@H](NC(=O)N[C@@H](CCC(=O)O)C(=O)O)C(=O)O)CC1 :: 3.31

Okay, next one:
# input Any idea what its log10 IC50 is? The molecule is `CC(=O)NCCOCCOCCOCCC(=O)NC[C@H]1CC[C@H](C(=O)N[C@@H](Cc2ccc3ccccc3c2)C(=O)NCCCC[C@H](NC(=O)N[C@@H](CCCC(=O)O)C(=O)O)C(=O)O)CC1`
# output 3.53

###

Target: Recombinant Human PSMA/FOLH1 Protein (Homo sapiens (Human), UniProt Q04609)
Sequence (Q04609 whole entry): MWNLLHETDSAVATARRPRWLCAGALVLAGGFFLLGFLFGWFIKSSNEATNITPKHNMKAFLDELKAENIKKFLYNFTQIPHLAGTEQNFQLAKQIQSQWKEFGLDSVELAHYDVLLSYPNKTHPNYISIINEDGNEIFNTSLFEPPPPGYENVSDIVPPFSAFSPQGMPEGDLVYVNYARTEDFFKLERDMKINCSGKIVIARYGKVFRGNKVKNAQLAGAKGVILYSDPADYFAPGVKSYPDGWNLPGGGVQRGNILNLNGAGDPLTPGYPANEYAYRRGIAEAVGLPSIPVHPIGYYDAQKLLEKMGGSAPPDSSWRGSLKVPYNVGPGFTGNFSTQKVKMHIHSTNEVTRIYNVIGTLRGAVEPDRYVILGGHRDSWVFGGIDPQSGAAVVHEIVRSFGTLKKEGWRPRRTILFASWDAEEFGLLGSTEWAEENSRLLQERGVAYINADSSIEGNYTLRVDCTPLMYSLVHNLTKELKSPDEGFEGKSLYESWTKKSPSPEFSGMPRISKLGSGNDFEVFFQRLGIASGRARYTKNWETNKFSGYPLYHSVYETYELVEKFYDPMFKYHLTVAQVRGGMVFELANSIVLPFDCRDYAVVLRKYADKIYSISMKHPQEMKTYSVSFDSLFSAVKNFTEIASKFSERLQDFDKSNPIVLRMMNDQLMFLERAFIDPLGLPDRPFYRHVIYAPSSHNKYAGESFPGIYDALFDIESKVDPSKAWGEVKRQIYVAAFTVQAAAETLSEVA
Assay: Inhibition assay (Amplex Red glutamic acid/glutamate oxidase, NAAG substrate)
Settings: Target PSMA; calculated based on Cheng-Prusoff equation; average of N replicates
assay_endpoint: pKi
Scale: pKi equals -log10([C]), with [C] in mol/L.

Here is how some molecules turned out for pKi.
CSCC[C@H](NC(=O)N[C@@H](CCCCNC(=O)[C@H](Cc1ccc2ccccc2c1)NC(=O)[C@H]1CC[C@H](CNC(=O)CCOCCOCCOCCNC(C)=O)CC1)C(=O)O)C(=O)O [Compound 27] :: 5.86
CC(=O)NCCOCCOCCOCCC(=O)N[C@@H](CCCOc1cc(C#N)cc(C#N)c1)C(=O)NCC(=O)N[C@@H](Cc1ccc2ccccc2c1)C(=O)NCCCC[C@H](NC(=O)N[C@@H](CCC(=O)O)C(=O)O)C(=O)O [Compound 52] :: 9.73
CC(=O)NCCOCCOCCOCCC(=O)NC[C@H]1CC[C@H](C(=O)N[C@@H](CC(C)C)C(=O)NCCCC[C@H](NC(=O)N[C@@H](CCC(=O)O)C(=O)O)C(=O)O)CC1 [Compound 1] :: 7.77
CC(=O)NCCOCCOCCOCCC(=O)N[C@@H](CCCOc1cc(C#N)cc(C#N)c1)C(=O)N[C@@H](Cc1ccc2ccccc2c1)C(=O)NCCCC[C@H](NC(=O)N[C@@H](CCC(=O)O)C(=O)O)C(=O)O [Compound 51] :: 7.91

# input Identify the measured pKi of CC(=O)NCCOCCOCCOCCC(=O)NC[C@H]1CC[C@H](C(=O)N[C@@H](CC2CCCCC2)C(=O)NCCCC[C@H](NC(=O)N[C@@H](CCC(=O)O)C(=O)O)C(=O)O)CC1 [Compound 19] for Recombinant Human PSMA/FOLH1 Protein (Homo sapiens (Human), UniProt Q04609).
# output 7.81

# input Likewise for CC(=O)NCCOCCOCCOCCC(=O)NC[C@H]1CC[C@H](C(=O)N[C@@H](Cc2ccc3ccccc3c2)C(=O)NCCCC[C@H](NC(=O)N[C@@H](CCCC(=O)O)C(=O)O)C(=O)O)CC1 [Compound 24] ?
# output 7.62

# input Likewise for CC(=O)NCCOCCOCCOCCC(=O)NC[C@H]1CC[C@H](C(=O)N[C@@H](Cc2c[nH]c3ccccc23)C(=O)NCCCC[C@H](NC(=O)N[C@@H](CCC(=O)O)C(=O)O)C(=O)O)CC1 (stereo in doubt) [Compound 2] ?
# output 9.75
